Origin of values: patent US20120190586A1

Molecular target: WGGG-GKMe3 (Histone 3 peptide, Gly8) (Homo sapiens, UniProt P68431, R9G)
Construct: made in house; host or cells: solid-phase chemical peptide synthesis
Test: Isothermal titration calorimetry, peptide titrated into A2B
Type: binding
Settings: titration of WGGG-GKMe3 into receptor; read-out: Kd by ITC, binding to KMe3 (unit inferred)
Protocol: FIG. 12. Histone 3 peptide (WGGG-GKMe3) used as the titrant in ITC experiments to confirm A2B binding to KMe3. Isothermal Titration calorimetry. Isothermal titration calorimetry measurements were conducted using an ITC200 from MicroCal, LLC to verify the binding data obtained by fluorescence anisotropy. A single 0.2 μL aliquot followed by 38 aliquots of 1 μL were titrated into the calorimetric cell every 2.5 minutes. […]
endpoint label: pKd
In textbook form, pKd equals minus log to base ten of the concentration in mol/L.

What value of pKd has been recorded for this entry: O=C(O)C1=C(C(=O)O)[C@@H]2c3ccc4cc3[C@H]1c1ccc(cc12)SSc1ccc2c(c1)[C@H]1C(C(=O)O)=C(C(=O)O)[C@@H]2c2cc(ccc21)SSc1cc(cc(C(=O)O)c1)SS4
4.89

###

molecular target: H3 K9Me3 (FAM-QTAR-KMe3-STG-NH2) (Homo sapiens, UniProt P68431)
Parameter pKd: see the listing below.
In textbook form, pKd equals minus log to base ten of the concentration in mol/L.

O=C(O)C1=C(C(=O)O)C2c3ccc4cc3C1c1ccc(cc12)SSc1ccc2c(c1)C1C(C(=O)O)=C(C(=O)O)C2c2cc(ccc21)SSc1cc(cc(C(=O)O)c1)SS4 (racemic) ... 4.60

Attention now shifts to the item below.
What value of pKd has been recorded for this entry: O=C(O)C1=C(C(=O)O)[C@@H]2c3ccc4cc3[C@H]1c1ccc(cc12)SSc1ccc2c(c1)[C@H]1C(C(=O)O)=C(C(=O)O)[C@@H]2c2cc(ccc21)SSc1cc(cc(C(=O)O)c1)SS4
4.55

###

biological target: H3 K9Me (FAM-QTAR-KMe-STG-NH2) (Homo sapiens)
endpoint label: Kd
Form entry: enter the amount, then its unit.

Look up Kd with H3 K9Me (FAM-QTAR-KMe-STG-NH2) (Homo sapiens) for this molecule: O=C(O)C1=C(C(=O)O)C2c3ccc4cc3C1c1ccc(cc12)SSc1ccc2c(c1)C1C(C(=O)O)=C(C(=O)O)C2c2cc(ccc21)SSc1cc(cc(C(=O)O)c1)SS4 (racemic) [rac-A2B]
166 µM

###

target: H3 K9Me3 R8G (Homo sapiens, UniProt P68431, R9G); construct: peptide consisting of residues 5-11 of histone 3 (H3 K9Men); assay: Fluorescence anisotropy binding to mutant H3 tail with Gly in place of Arg8; settings: 27° C., 10 mM phosphate buffer pH 8.5; errors in parentheses
endpoint label: Kd (µM)
Only the number, expressed in µM, is required.

What value of Kd has been recorded for this entry: O=C(O)C1=C(C(=O)O)C2c3ccc4cc3C1c1ccc(cc12)SSc1ccc2c(c1)C1C(C(=O)O)=C(C(=O)O)C2c2cc(ccc21)SSc1cc(cc(C(=O)O)c1)SS4 (racemic)
34

###

biological target: WGGG-GKMe3 (Histone 3 peptide, Gly8) (Homo sapiens, UniProt P68431, R9G); construct: made in house; host or cells: solid-phase chemical peptide synthesis; assay: Isothermal titration calorimetry, peptide titrated into A2B; assay type: binding; conditions: 26° C., 10 mM phosphate buffer pH 8.5; read-out: Kd by ITC, binding to KMe3
endpoint label: pKd
In textbook form, pKd equals minus log to base ten of the concentration in mol/L.

What value of pKd has been recorded for this entry: O=C(O)C1=C(C(=O)O)C2c3ccc4cc3C1c1ccc(cc12)SSc1ccc2c(c1)C1C(C(=O)O)=C(C(=O)O)C2c2cc(ccc21)SSc1cc(cc(C(=O)O)c1)SS4 (racemic)
4.70
